Molecular target: hNK2R (Homo sapiens, UniProt P21452)
Construct: host or cells: COS-7
Sequence (P21452 1-398): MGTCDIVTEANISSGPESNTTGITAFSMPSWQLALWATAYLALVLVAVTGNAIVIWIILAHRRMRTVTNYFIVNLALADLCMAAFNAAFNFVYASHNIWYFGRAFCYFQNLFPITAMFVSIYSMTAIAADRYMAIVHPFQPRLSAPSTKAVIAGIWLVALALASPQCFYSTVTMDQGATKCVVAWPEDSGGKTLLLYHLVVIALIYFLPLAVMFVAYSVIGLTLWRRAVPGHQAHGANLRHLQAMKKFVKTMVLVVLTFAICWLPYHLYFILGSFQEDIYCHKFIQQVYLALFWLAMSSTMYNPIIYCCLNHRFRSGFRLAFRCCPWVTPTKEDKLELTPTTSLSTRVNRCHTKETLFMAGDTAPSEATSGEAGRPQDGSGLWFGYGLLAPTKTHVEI
Assay: Hithunter cAMP assay (Gs-coupling) in transfected COS-7 cells
Type: cell-based
Settings: COS-7 cells
Numbered stars: 1 amine (or outer) side, 2 acyl side, 3 side chain; on linkers, the order of the positions; unused ones are H or OH. Square brackets hold non-standard residues; d marks the D form. Peptide text beside a SMILES is read from it. * marks the point of attachment. C18 diacid = O=C(O)CCCCCCCCCCCCCCCCC(=O)*; Phe(4-F) = N[C@@H](Cc1ccc(F)cc1)C(=O)O; γGlu = O=C(O)[C@H](CCC(=O)[*:2])N[*:1]; NMeL = CN[C@@H](CC(C)C)C(=O)O; Nle = CCCC[C@H](N)C(=O)O; AEEA = NCCOCCOCC(=O)O
hNK2R, cAMP Efficacy listing for selected compounds.
All answers are understood in %, so give the number only.

compound	hNK2R, cAMP Efficacy / %
CC(C)C[C@@H](C(=O)N[C@@H](Cc1ccccc1)C(N)=O)N(C)C(=O)CNC(=O)[C@@H](NC(=O)[C@H](Cc1ccc(O)cc1)NC(=O)[C@H](CCCCN)NC(=O)[C@H](CC(=O)O)NC(=O)COCCOCCNC(=O)COCCOCCNC(=O)CC[C@H](NC(=O)CCCCCCCCCCCCCCCCC(=O)O)C(=O)O)C(C)C [compound 353, *Asp;Lys;Tyr;Val;Gly;NmLeu;Phe;NH2] ({C18 diacid-γGlu-AEEA-AEEA}-DKYVG[NMeL]F-NH2)	50
CCCC[C@H](NC(=O)[C@H](CC(C)C)N(C)C(=O)CNC(=O)[C@@H](NC(=O)[C@H](Cc1ccccc1)NC(=O)[C@H](CCCCN)NC(=O)[C@H](CC(=O)O)NC(=O)COCCOCCNC(=O)COCCOCCNC(=O)CC[C@H](NC(=O)CCCCCCCCCCCCCCCCC(=O)O)C(=O)O)C(C)C)C(N)=O	100
CC(C)C[C@@H](C(=O)N[C@@H](Cc1ccc(F)cc1)C(N)=O)N(C)C(=O)CNC(=O)[C@@H](NC(=O)[C@H](Cc1ccc(O)cc1)NC(=O)[C@H](CCCCN)NC(=O)[C@H](CC(=O)O)NC(=O)COCCOCCNC(=O)COCCOCCNC(=O)CC[C@H](NC(=O)CCCCCCCCCCCCCCCCC(=O)O)C(=O)O)C(C)C [compound 369, *Asp;Lys;Tyr;Val;Gly;NmLeu;4-F-Phe;NH2] ({C18 diacid-γGlu-AEEA-AEEA}-DKYVG[NMeL][Phe(4-F)]-NH2)	80

Ask: Supply hNK2R, cAMP Efficacy value. Item: CSCC[C@H](NC(=O)[C@H](CC(C)C)N(C)C(=O)CNC(=O)[C@@H](NC(=O)[C@H](Cc1ccc(O)cc1)NC(=O)[C@H](CCCCN)NC(=O)[C@H](CC(=O)O)NC(=O)COCCOCCNC(=O)COCCOCCNC(=O)CC[C@H](NC(=O)CCCCCCCCCCCCCCCCC(=O)O)C(=O)O)C(C)C)C(N)=O [compound 316, *Asp;Lys;Tyr;Val;Gly;NmLeu;Met;NH2] ({C18 diacid-γGlu-AEEA-AEEA}-DKYVG[NMeL]M-NH2)
Reply: 100

Ask: Supply hNK2R, cAMP Efficacy value. Item: CCCC[C@H](NC(=O)[C@H](CC(C)C)N(C)C(=O)CNC(=O)[C@@H](NC(=O)[C@H](Cc1ccc(O)cc1)NC(=O)[C@H](CCCCN)NC(=O)[C@H](CCC(=O)O)NC(=O)COCCOCCNC(=O)COCCOCCNC(=O)CC[C@H](NC(=O)CCCCCCCCCCCCCCCCC(=O)O)C(=O)O)C(C)C)C(N)=O [compound 336, *Glu;Lys;Tyr;Val;Gly;NmLeu;Nle;NH2] ({C18 diacid-γGlu-AEEA-AEEA}-EKYVG[NMeL][Nle]-NH2)
Reply: 0

meta.source: patent US20230406883A1
